Each record here notes measured molar heat capacity at constant pressure.
experimental-protocol: molar heat capacity at constant pressure
stated-conditions: 301.15 K; 101.33 kPa; Liquid; Large sample (1 g) DSC
Numbers after ± are expanded uncertainties.

>  <compound>
COCCOCCOCCO [2-[2-(2-methoxyethoxy)ethoxy]ethanol]

>  <molar heat capacity at constant pressure>
357.2 ± 5.5 J/K/mol

$$$$
>  <compound>
CCCOCCOCCO

>  <molar heat capacity at constant pressure>
330.5 ± 5.1 J/K/mol

$$$$
>  <compound>
CCCCCCCCOCCOCCOCCO [2-[2-[2-(octyloxy)ethoxy]ethoxy]ethanol]

>  <molar heat capacity at constant pressure>
575.2 ± 8.9 J/K/mol

$$$$
>  <compound>
CCCCOCCOCCO

>  <molar heat capacity at constant pressure>
361.5 ± 5.6 J/K/mol

$$$$
>  <compound>
CCOCCO

>  <molar heat capacity at constant pressure>
212.1 ± 3.3 J/K/mol

$$$$
>  <compound>
CCCCCCOCCOCCO

>  <molar heat capacity at constant pressure>
422.3 ± 6.5 J/K/mol

$$$$
>  <compound>
COCCOCCO

>  <molar heat capacity at constant pressure>
268.2 ± 4.2 J/K/mol

$$$$
>  <compound>
CCCCOCCO

>  <molar heat capacity at constant pressure>
274.5 ± 4.3 J/K/mol

$$$$
>  <compound>
CCOCCOCCO

>  <molar heat capacity at constant pressure>
302.5 ± 4.7 J/K/mol

$$$$
>  <compound>
COCCOCCOCCOCCO

>  <molar heat capacity at constant pressure>
449.2 ± 7 J/K/mol

$$$$
>  <compound>
CCCOCCO

>  <molar heat capacity at constant pressure>
242.7 ± 3.8 J/K/mol

$$$$

----------
experimental-protocol: molar heat capacity at constant pressure
stated-conditions: 287.15 K; 101.33 kPa; Liquid; Large sample (1 g) DSC
Label scheme for molar heat capacity at constant pressure: bottom end (below 300 J/K/mol), midrange (300 J/K/mol to below 400 J/K/mol), top end (400 J/K/mol or more)

>  <molecule>
COCCOCCOCCO [2-[2-(2-methoxyethoxy)ethoxy]ethanol]

>  <label-value>
midrange

$$$$
>  <molecule>
CCCCCCOCCOCCO

>  <label-value>
top end

$$$$
>  <molecule>
CCCCOCCO

>  <label-value>
bottom end

$$$$
>  <molecule>
COCCOCCO

>  <label-value>
bottom end

$$$$
>  <molecule>
CCCCCCCCOCCOCCOCCO [2-[2-[2-(octyloxy)ethoxy]ethoxy]ethanol]

>  <label-value>
top end

$$$$
>  <molecule>
CCCCOCCOCCO

>  <label-value>
midrange

$$$$
>  <molecule>
CCCOCCOCCO

>  <label-value>
midrange

$$$$
>  <molecule>
COCCOCCOCCOCCO

>  <label-value>
top end

$$$$
>  <molecule>
CCOCCO

>  <label-value>
bottom end

$$$$
>  <molecule>
CCCOCCO

>  <label-value>
bottom end

$$$$

----------
Entries and their molar heat capacity at constant pressure
experimental-protocol: molar heat capacity at constant pressure
stated-conditions: 331.15 K; 101.33 kPa; Liquid; Large sample (1 g) DSC
measured-parameter: molar heat capacity at constant pressure (J/K/mol)

>  <compound>
COCCOCCO [2-(2-methoxyethoxy)ethanol]

>  <measured-number>
277.3

$$$$
>  <compound>
CCOCCO [2-ethoxyethan-1-ol]

>  <measured-number>
223.3

$$$$
>  <compound>
CCCCOCCOCCO [3,6-dioxa-1-decanol]

>  <measured-number>
375.8

$$$$
>  <compound>
CCCOCCO [2-propoxyethanol]

>  <measured-number>
256.1

$$$$
>  <compound>
COCCOCCOCCO [2-[2-(2-methoxyethoxy)ethoxy]ethanol]

>  <measured-number>
365.1

$$$$
>  <compound>
CCCOCCOCCO [2-(2-propoxyethoxy)ethanol]

>  <measured-number>
342.9

$$$$
>  <compound>
CCCCCCCCOCCOCCOCCO [2-[2-[2-(octyloxy)ethoxy]ethoxy]ethanol]

>  <measured-number>
592.9

$$$$
>  <compound>
COCCOCCOCCOCCO [3,6,9,12-tetraoxatridecanol]

>  <measured-number>
457.3

$$$$
>  <compound>
CCOCCOCCO [3,6-dioxa-1-octanol]

>  <measured-number>
312.8

$$$$
>  <compound>
CCCCCCOCCOCCO [2-(2-hexyloxyethoxy)ethanol]

>  <measured-number>
437

$$$$
>  <compound>
CCCCOCCO [2-butoxyethan-1-ol]

>  <measured-number>
289.6

$$$$

----------
Reported molar heat capacity at constant pressure values are given for each entry in this list.
experimental-protocol: molar heat capacity at constant pressure
stated-conditions: 277.15 K; 101.33 kPa; Liquid; Large sample (1 g) DSC
measured-parameter: molar heat capacity at constant pressure (J/K/mol)

>  <compound>
COCCOCCOCCOCCO [3,6,9,12-tetraoxatridecanol]

>  <measured-number>
445.6

$$$$
>  <compound>
CCCCOCCO [2-butoxyethan-1-ol]

>  <measured-number>
262.6

$$$$
>  <compound>
CCCOCCOCCO [2-(2-propoxyethoxy)ethanol]

>  <measured-number>
322

$$$$
>  <compound>
CCCCCCCCOCCOCCOCCO [2-[2-[2-(octyloxy)ethoxy]ethoxy]ethanol]

>  <measured-number>
564.5

$$$$
>  <compound>
CCCOCCO [2-propoxyethanol]

>  <measured-number>
232.4

$$$$
>  <compound>
CCOCCO [2-ethoxyethan-1-ol]

>  <measured-number>
204

$$$$
>  <compound>
CCCCCCOCCOCCO [2-(2-hexyloxyethoxy)ethanol]

>  <measured-number>
412

$$$$
>  <compound>
CCOCCOCCO [3,6-dioxa-1-octanol]

>  <measured-number>
296.8

$$$$
>  <compound>
CCCCOCCOCCO [3,6-dioxa-1-decanol]

>  <measured-number>
351.9

$$$$
>  <compound>
COCCOCCOCCO [2-[2-(2-methoxyethoxy)ethoxy]ethanol]

>  <measured-number>
352.6

$$$$
>  <compound>
COCCOCCO [2-(2-methoxyethoxy)ethanol]

>  <measured-number>
262.3

$$$$

----------
Entries annotated with measured molar heat capacity at constant pressure
experimental-protocol: molar heat capacity at constant pressure
stated-conditions: 317.15 K; 101.33 kPa; Liquid; Large sample (1 g) DSC
measured-parameter: molar heat capacity at constant pressure (J/K/mol)

>  <molecule>
CCCCCCCCOCCOCCOCCO [2-[2-[2-(octyloxy)ethoxy]ethoxy]ethanol]

>  <measured-parameter>
molar heat capacity at constant pressure

>  <measured-number>
584.1

$$$$
>  <molecule>
COCCOCCOCCOCCO

>  <measured-parameter>
molar heat capacity at constant pressure

>  <measured-number>
453

$$$$
>  <molecule>
CCOCCOCCO

>  <measured-parameter>
molar heat capacity at constant pressure

>  <measured-number>
307.5

$$$$
>  <molecule>
CCCCOCCO

>  <measured-parameter>
molar heat capacity at constant pressure

>  <measured-number>
282.5

$$$$
>  <molecule>
CCCCOCCOCCO

>  <measured-parameter>
molar heat capacity at constant pressure

>  <measured-number>
368.8

$$$$

----------
experimental-protocol: molar heat capacity at constant pressure
stated-conditions: 281.15 K; 101.33 kPa; Liquid; Large sample (1 g) DSC

>  <molecule>
CCCOCCOCCO

>  <molar heat capacity at constant pressure [J/K/mol]>
323.3

$$$$
>  <molecule>
COCCOCCOCCO [2-[2-(2-methoxyethoxy)ethoxy]ethanol]

>  <molar heat capacity at constant pressure [J/K/mol]>
353.2

$$$$
>  <molecule>
CCCCOCCOCCO

>  <molar heat capacity at constant pressure [J/K/mol]>
353.4

$$$$
>  <molecule>
COCCOCCO

>  <molar heat capacity at constant pressure [J/K/mol]>
263.2

$$$$
>  <molecule>
CCOCCO

>  <molar heat capacity at constant pressure [J/K/mol]>
205.3

$$$$

----------
experimental-protocol: molar heat capacity at constant pressure
stated-conditions: 283.15 K; 101.33 kPa; Liquid; Large sample (1 g) DSC
Class assignment keyed on molar heat capacity at constant pressure, ranges one (below 300 J/K/mol), two (300 J/K/mol to below 400 J/K/mol), three (400 J/K/mol or more)

>  <molecule>
COCCOCCOCCOCCO [3,6,9,12-tetraoxatridecanol]

>  <label-value>
three

$$$$
>  <molecule>
CCCOCCOCCO [2-(2-propoxyethoxy)ethanol]

>  <label-value>
two

$$$$
>  <molecule>
COCCOCCOCCO [2-[2-(2-methoxyethoxy)ethoxy]ethanol]

>  <label-value>
two

$$$$
>  <molecule>
CCCCCCOCCOCCO [2-(2-hexyloxyethoxy)ethanol]

>  <label-value>
three

$$$$
>  <molecule>
CCCOCCO [2-propoxyethanol]

>  <label-value>
one

$$$$
>  <molecule>
CCCCOCCO [2-butoxyethan-1-ol]

>  <label-value>
one

$$$$
>  <molecule>
CCOCCO [2-ethoxyethan-1-ol]

>  <label-value>
one

$$$$
>  <molecule>
CCCCOCCOCCO [3,6-dioxa-1-decanol]

>  <label-value>
two

$$$$
>  <molecule>
COCCOCCO [2-(2-methoxyethoxy)ethanol]

>  <label-value>
one

$$$$
>  <molecule>
CCCCCCCCOCCOCCOCCO [2-[2-[2-(octyloxy)ethoxy]ethoxy]ethanol]

>  <label-value>
three

$$$$

Numbers sourced from the NIST ThermoML archive (doi:10.1021/acs.jced.5b00051).
